Just for reference, patent US20240139333A1 is where these values come from.

Experiment: Temperature stability study in H2O
Format: physicochemical
Details: 50° C., 30 min
Method: 20° C.: To a 4 mL scintillation vial containing Compound A-E (in respective experiments; 0.8 mg) was added 4 mL of HPLC grade water to create a 0.2 mg/mL solution. 2 mL of this solution was added to a 2 mL HPLC vial and placed in the auto sampler of an HPLC-MS at 20° C. Timed aliquots at time (T)=15, 30, 60, 120, 240 and 480 minutes were taken and analyzed by HPLC-MS using elution method 1 (Table 4). […]
Criterion: % Remaining strictly less than 70%. Met: T. Not met: F.

>  <compound>
O=C(CCc1cccnc1)Oc1ccc([N+](=O)[O-])cc1 [Compound D, 4-Nitrophenyl-3-(pyridin-3-yl)propanoate]

>  <class-label>
F

$$$$
>  <compound>
O=C(CCc1cccnc1)ON1C(=O)CCC1=O

>  <class-label>
T

$$$$
>  <compound>
O=C(CCc1cccnc1)Oc1c(F)c(F)cc(F)c1F

>  <class-label>
F

$$$$
>  <compound>
O=C(CCc1cccnc1)Oc1c(F)cccc1F

>  <class-label>
F

$$$$
>  <compound>
O=C(CCc1cccnc1)Oc1c(Cl)cccc1Cl

>  <class-label>
F

$$$$

====

Assay: Comparative active ester reactivity study with HOPO nucleophile
Settings: 1,2-HOPO 1 eq., 60 min, 22±2° C.
Catalogue of compounds with associated % Active Ester Remaining

>  <compound>
O=C(CCc1cccnc1)Oc1c(Cl)cccc1Cl

>  <% Active Ester Remaining [%]>
96.90

$$$$
>  <compound>
O=C(CCc1cccnc1)Oc1c(F)cccc1F

>  <% Active Ester Remaining [%]>
90.85

$$$$
>  <compound>
O=C(CCc1cccnc1)Oc1ccc([N+](=O)[O-])cc1 [Compound D, 4-Nitrophenyl-3-(pyridin-3-yl)propanoate]

>  <% Active Ester Remaining [%]>
93.29

$$$$
>  <compound>
O=C(CCc1cccnc1)ON1C(=O)CCC1=O

>  <% Active Ester Remaining [%]>
11.06

$$$$
>  <compound>
O=C(CCc1cccnc1)Oc1c(F)c(F)cc(F)c1F

>  <% Active Ester Remaining [%]>
9.78

$$$$

====

Experiment: Comparative active ester reactivity study with HOA nucleophile (N-hydroxy-N-methylbenzamide)
Conditions: N-Hydroxy-N-methylbenzamide 1 eq., 30 min, 22±2° C.
parameter-measured: % Active Ester Remaining

>  <molecule>
O=C(CCc1cccnc1)Oc1c(F)cccc1F

>  <result>
84.96%

$$$$
>  <molecule>
O=C(CCc1cccnc1)Oc1ccc([N+](=O)[O-])cc1 [Compound D, 4-Nitrophenyl-3-(pyridin-3-yl)propanoate]

>  <result>
90.98%

$$$$
>  <molecule>
O=C(CCc1cccnc1)Oc1c(F)c(F)cc(F)c1F

>  <result>
72.43%

$$$$
>  <molecule>
O=C(CCc1cccnc1)ON1C(=O)CCC1=O

>  <result>
20.77%

$$$$
>  <molecule>
O=C(CCc1cccnc1)Oc1c(Cl)cccc1Cl

>  <result>
99.24%

$$$$

====

Assay: pH stability study
Assay type: physicochemical
Details: pH 9 buffer, 20° C., 15 min
% Remaining strictly less than 8% = class 1. Otherwise class 0.

>  <compound>
O=C(CCc1cccnc1)Oc1c(F)c(F)cc(F)c1F [Compound C]

>  <class-label>
class 1

$$$$
>  <compound>
O=C(CCc1cccnc1)Oc1ccc([N+](=O)[O-])cc1 [Compound D, 4-Nitrophenyl-3-(pyridin-3-yl)propanoate]

>  <class-label>
class 0

$$$$
>  <compound>
O=C(CCc1cccnc1)Oc1c(Cl)cccc1Cl [Compound A]

>  <class-label>
class 0

$$$$
>  <compound>
O=C(CCc1cccnc1)ON1C(=O)CCC1=O [Compound E]

>  <class-label>
class 1

$$$$
>  <compound>
O=C(CCc1cccnc1)Oc1c(F)cccc1F [Compound B]

>  <class-label>
class 0

$$$$

====

Experiment: Comparative active ester reactivity study with HOPO nucleophile
Settings: 1,2-HOPO 1 eq., 30 min, 22±2° C.
# % Active Ester Remaining listing for each entry below

>  <compound>
O=C(CCc1cccnc1)Oc1c(Cl)cccc1Cl [Compound A]

>  <% Active Ester Remaining (%)>
98.56

$$$$
>  <compound>
O=C(CCc1cccnc1)Oc1c(F)cccc1F [Compound B]

>  <% Active Ester Remaining (%)>
96.23

$$$$
>  <compound>
O=C(CCc1cccnc1)Oc1ccc([N+](=O)[O-])cc1 [Compound D, 4-Nitrophenyl-3-(pyridin-3-yl)propanoate]

>  <% Active Ester Remaining (%)>
96.81

$$$$
>  <compound>
O=C(CCc1cccnc1)ON1C(=O)CCC1=O [Compound E]

>  <% Active Ester Remaining (%)>
12.28

$$$$
>  <compound>
O=C(CCc1cccnc1)Oc1c(F)c(F)cc(F)c1F [Compound C]

>  <% Active Ester Remaining (%)>
17.81

$$$$

====

Experiment: pH stability study
Type: physicochemical
Details: pH 7 buffer, 20° C., 30 min
Outcome: yes for % Remaining of at least 80%; no for anything lower.

>  <compound>
O=C(CCc1cccnc1)Oc1c(Cl)cccc1Cl [Compound A]

>  <class-label>
yes

$$$$
>  <compound>
O=C(CCc1cccnc1)Oc1c(F)cccc1F [Compound B]

>  <class-label>
yes

$$$$
>  <compound>
O=C(CCc1cccnc1)Oc1c(F)c(F)cc(F)c1F [Compound C]

>  <class-label>
yes

$$$$
>  <compound>
O=C(CCc1cccnc1)Oc1ccc([N+](=O)[O-])cc1 [Compound D, 4-Nitrophenyl-3-(pyridin-3-yl)propanoate]

>  <class-label>
yes

$$$$
>  <compound>
O=C(CCc1cccnc1)ON1C(=O)CCC1=O [Compound E]

>  <class-label>
no

$$$$

====

Assay: Temperature stability study in H2O
Assay type: physicochemical
Details: 50° C., 480 min
# reported % Remaining; entries follow
parameter-measured: % Remaining (%)

>  <compound>
O=C(CCc1cccnc1)Oc1c(F)c(F)cc(F)c1F

>  <parameter-measured>
% Remaining

>  <numeric-readout>
2.35

$$$$
>  <compound>
O=C(CCc1cccnc1)Oc1c(F)cccc1F

>  <parameter-measured>
% Remaining

>  <numeric-readout>
68.06

$$$$
>  <compound>
O=C(CCc1cccnc1)ON1C(=O)CCC1=O

>  <parameter-measured>
% Remaining

>  <numeric-readout>
0

$$$$
>  <compound>
O=C(CCc1cccnc1)Oc1ccc([N+](=O)[O-])cc1 [Compound D, 4-Nitrophenyl-3-(pyridin-3-yl)propanoate]

>  <parameter-measured>
% Remaining

>  <numeric-readout>
66.22

$$$$
>  <compound>
O=C(CCc1cccnc1)Oc1c(Cl)cccc1Cl

>  <parameter-measured>
% Remaining

>  <numeric-readout>
81.87

$$$$

====

Assay: Temperature stability study in H2O
Format: physicochemical
Details: 20° C., 480 min

>  <compound>
O=C(CCc1cccnc1)Oc1c(F)c(F)cc(F)c1F

>  <% Remaining>
56.62%

$$$$
>  <compound>
O=C(CCc1cccnc1)Oc1c(Cl)cccc1Cl

>  <% Remaining>
100%

$$$$
>  <compound>
O=C(CCc1cccnc1)Oc1ccc([N+](=O)[O-])cc1 [Compound D, 4-Nitrophenyl-3-(pyridin-3-yl)propanoate]

>  <% Remaining>
91.31%

$$$$
>  <compound>
O=C(CCc1cccnc1)Oc1c(F)cccc1F

>  <% Remaining>
95.14%

$$$$
>  <compound>
O=C(CCc1cccnc1)ON1C(=O)CCC1=O

>  <% Remaining>
4.50%

$$$$

====

Assay: Temperature stability study in H2O
Type: physicochemical
Details: 20° C., 60 min
Measured % Remaining of individual entries

>  <molecule>
O=C(CCc1cccnc1)Oc1ccc([N+](=O)[O-])cc1 [Compound D, 4-Nitrophenyl-3-(pyridin-3-yl)propanoate]

>  <measurement-units>
%

>  <% Remaining>
95.69

$$$$
>  <molecule>
O=C(CCc1cccnc1)Oc1c(F)cccc1F

>  <measurement-units>
%

>  <% Remaining>
98.92

$$$$
>  <molecule>
O=C(CCc1cccnc1)Oc1c(F)c(F)cc(F)c1F

>  <measurement-units>
%

>  <% Remaining>
87.38

$$$$
>  <molecule>
O=C(CCc1cccnc1)ON1C(=O)CCC1=O

>  <measurement-units>
%

>  <% Remaining>
70.03

$$$$
>  <molecule>
O=C(CCc1cccnc1)Oc1c(Cl)cccc1Cl

>  <measurement-units>
%

>  <% Remaining>
100

$$$$

====

Experiment: pH stability study
Type: physicochemical
Conditions: pH 7 buffer, 20° C., 120 min
Measured % Remaining, listed per entry for reference.
parameter-measured: % Remaining (%)

>  <molecule>
O=C(CCc1cccnc1)Oc1ccc([N+](=O)[O-])cc1 [Compound D, 4-Nitrophenyl-3-(pyridin-3-yl)propanoate]

>  <parameter-measured>
% Remaining

>  <numeric-readout>
94.83

$$$$
>  <molecule>
O=C(CCc1cccnc1)ON1C(=O)CCC1=O [Compound E]

>  <parameter-measured>
% Remaining

>  <numeric-readout>
4.02

$$$$
>  <molecule>
O=C(CCc1cccnc1)Oc1c(Cl)cccc1Cl [Compound A]

>  <parameter-measured>
% Remaining

>  <numeric-readout>
99.35

$$$$
>  <molecule>
O=C(CCc1cccnc1)Oc1c(F)c(F)cc(F)c1F [Compound C]

>  <parameter-measured>
% Remaining

>  <numeric-readout>
54.53

$$$$
>  <molecule>
O=C(CCc1cccnc1)Oc1c(F)cccc1F [Compound B]

>  <parameter-measured>
% Remaining

>  <numeric-readout>
95.40

$$$$
